experimental target: androgen receptor (AR) splicing variant AR-v7 (Homo sapiens, UniProt P10275)
Construct: The degradation activity of compounds on AR-v7 in 22RV1 cells; host or cells: 22RV1 cells
Sequence (P10275 1-644 isoform P10275-3): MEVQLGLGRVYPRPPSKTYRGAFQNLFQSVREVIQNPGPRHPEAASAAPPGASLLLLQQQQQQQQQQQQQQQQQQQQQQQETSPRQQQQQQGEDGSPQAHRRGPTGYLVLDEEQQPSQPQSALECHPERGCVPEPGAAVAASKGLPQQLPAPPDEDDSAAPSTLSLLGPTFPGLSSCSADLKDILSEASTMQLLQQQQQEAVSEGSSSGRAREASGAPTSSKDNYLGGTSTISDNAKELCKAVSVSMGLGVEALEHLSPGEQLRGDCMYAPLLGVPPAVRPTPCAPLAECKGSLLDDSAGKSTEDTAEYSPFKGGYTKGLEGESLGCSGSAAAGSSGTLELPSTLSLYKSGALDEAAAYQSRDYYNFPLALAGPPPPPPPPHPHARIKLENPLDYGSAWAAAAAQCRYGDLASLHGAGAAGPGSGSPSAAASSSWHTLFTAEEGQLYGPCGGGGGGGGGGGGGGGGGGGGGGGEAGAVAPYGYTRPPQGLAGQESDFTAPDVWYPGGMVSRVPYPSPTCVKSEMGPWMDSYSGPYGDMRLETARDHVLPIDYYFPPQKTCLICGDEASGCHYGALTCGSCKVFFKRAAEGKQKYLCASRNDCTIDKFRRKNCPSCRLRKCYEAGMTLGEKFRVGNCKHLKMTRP
experiment description: Degradation activity on androgen receptor splicing variant AR-v7 in 22RV1 cells (ELISA)
Assay type: cell-based
recorded conditions: AR-v7 degradation in 22RV1 cells, 48 h, class symbols
Measured DC50 accompanies every entry in the list below.

CC(C)(c1ccc(OCc2ccnc(OC3CCN(C(=O)OCc4ccccc4)CC3)n2)cc1)c1ccc(O[C@H]2C[C@@H](Nc3ccc4c(c3)C(=O)N(C3CCC(=O)NC3=O)C4=O)C2)cc1 (some centres unmarked) :: 101 to 1000 nM
CCC(CC)(c1ccc(Oc2ccc(C(C)O)nn2)cc1)c1ccc(O[C@H]2C[C@@H](Nc3ccc4c(c3)C(=O)N(C3CCC(=O)NC3=O)C4=O)C2)cc1 (some centres unmarked) :: < 10 nM
Cc1nc(-c2ccnc(Oc3ccc(C(C)(C)c4ccc(O[C@H]5C[C@H](Nc6ccc7c(c6)C(=O)N(C6CCC(=O)NC6=O)C7=O)C5)cc4)cc3)c2)no1 (some centres unmarked) :: 11 to 100 nM
CC(C)(c1ccc(OCc2ccnc(C#N)n2)cc1)c1ccc(O[C@H]2C[C@@H](Nc3ccc4c(c3)C(=O)N(C3CCC(=O)NC3=O)C4=O)C2)cc1 (some centres unmarked) :: < 10 nM
CC(C)(c1ccc(OCc2ccnc(N3C[C@@H]4C[C@H]3CN4)n2)cc1)c1ccc(O[C@H]2C[C@@H](Nc3ccc4c(c3)C(=O)N(C3CCC(=O)NC3=O)C4=O)C2)cc1 (some centres unmarked) :: 11 to 100 nM

Measured DC50 of CC(=O)c1nccc(COc2ccc(C(C)(C)c3ccc(OC4CCN(c5ccc6c(c5)C(=O)N(C5CCC(=O)NC5=O)C6=O)C4)cc3)cc2)n1 (centres unmarked) : 101 to 1000 nM

Measured DC50 of CC(=O)c1cnc(Oc2ccc(C3(c4ccc(OC5CC(Nc6ccc7c(c6)C(=O)N(C6CCC(=O)NC6=O)C7=O)C5)cc4)CCCC3)cc2)cn1 (centres unmarked) : < 10 nM

Measured DC50 of CC(C)(c1ccc(Oc2cnc(-n3ccnn3)cn2)cc1)c1ccc(O[C@H]2C[C@H](Nc3ccc4c(c3)C(=O)N(C3CCC(=O)NC3=O)C4=O)C2)cc1 (some centres unmarked) : < 10 nM

Measured DC50 of CC(C)(c1ccc(OCc2ccnc(N3CC4(COC4)C3)n2)cc1)c1ccc(OCC2CC(Nc3ccc4c(c3)C(=O)N(C3CCC(=O)NC3=O)C4=O)C2)cc1 (centres unmarked) : 11 to 100 nM

Measured DC50 of CC(C)(c1ccc(Oc2ncnc(N3CC(N4CCC4)C3)c2F)cc1)c1ccc(O[C@H]2C[C@@H](Nc3ccc4c(c3)C(=O)N(C3CCC(=O)NC3=O)C4=O)C2)cc1 (some centres unmarked) : 11 to 100 nM

Measured DC50 of CC(C)(c1ccc(OCc2ccnc(N3CC4(COC4)C3)n2)cc1)c1ccc(N2CC(Nc3ccc4c(c3)C(=O)N(C3CCC(=O)NC3=O)C4=O)C2)cc1 (centres unmarked) : < 10 nM

Values were extracted from patent US20250051347A1.
